# Tested on: T. cruzi (Dm28c-Luc) intracellular amastigotes
# assayMethodText: Trypanocidal activity against intracellular amastigotes in infected Vero cell monolayers
# Assay type: cell-based, Trypanosoma cruzi
# details: Trypanosoma cruzi, Vero, pIC50 = −log IC50, Dm28c-Luc clone; read-out: Intracellular Amastigotes pIC50 (converted)
measuredEndpoint: IC50

INSERT INTO results (compoundsmiles, assaysystem, measuredendpoint, measuredresult) VALUES
  ('Clc1ccc(-n2cc(C3=NCCS3)cn2)cc1Cl', 'T. cruzi (Dm28c-Luc) intracellular amastigotes', 'IC50', '< 6.92 µM'),
  ('Clc1cc(Cl)cc(-n2cc(C3=NCCS3)cn2)c1', 'T. cruzi (Dm28c-Luc) intracellular amastigotes', 'IC50', '> 100 µM'),
  ('Nc1c(C2=NCCS2)cnn1-c1ccc(Cl)cc1Cl', 'T. cruzi (Dm28c-Luc) intracellular amastigotes', 'IC50', '> 100 µM'),
  ('Nc1c(C2=NCCS2)cnn1-c1cccc(F)c1', 'T. cruzi (Dm28c-Luc) intracellular amastigotes', 'IC50', '> 100 µM'),
  ('Nc1c(C2=NCCS2)cnn1-c1ccc(Cl)cc1', 'T. cruzi (Dm28c-Luc) intracellular amastigotes', 'IC50', '> 100 µM'),
  ('Fc1cccc(-n2cc(C3=NCCS3)cn2)c1', 'T. cruzi (Dm28c-Luc) intracellular amastigotes', 'IC50', '~10 µM'),
  ('Brc1cccc(-n2cc(C3=NCCS3)cn2)c1', 'T. cruzi (Dm28c-Luc) intracellular amastigotes', 'IC50', '~10 µM'),
  ('Clc1ccc(-n2cc(C3=NCCS3)cn2)cc1', 'T. cruzi (Dm28c-Luc) intracellular amastigotes', 'IC50', '~10 µM'),
  ('COc1ccc(-n2ncc(C3=NCCS3)c2N)cc1', 'T. cruzi (Dm28c-Luc) intracellular amastigotes', 'IC50', '79.4 µM'),
  ('COc1ccc(-n2cc(C3=NCCS3)cn2)cc1', 'T. cruzi (Dm28c-Luc) intracellular amastigotes', 'IC50', '22.9 µM'),
  ('Nc1c(C2=NCCS2)cnn1-c1ccc(Cl)c(Cl)c1', 'T. cruzi (Dm28c-Luc) intracellular amastigotes', 'IC50', '> 100 µM'),
  ('Fc1ccc(-n2cc(C3=NCCS3)cn2)cc1', 'T. cruzi (Dm28c-Luc) intracellular amastigotes', 'IC50', '14.1 µM'),
  ('Nc1c(C2=NCCS2)cnn1-c1cc(Cl)cc(Cl)c1', 'T. cruzi (Dm28c-Luc) intracellular amastigotes', 'IC50', '64.6 µM'),
  ('Brc1ccc(-n2cc(C3=NCCS3)cn2)cc1', 'T. cruzi (Dm28c-Luc) intracellular amastigotes', 'IC50', '< 6.92 µM'),
  ('Clc1cccc(-n2cc(C3=NCCS3)cn2)c1', 'T. cruzi (Dm28c-Luc) intracellular amastigotes', 'IC50', '~10 µM'),
  ('Nc1c(C2=NCCS2)cnn1-c1cccc(Cl)c1', 'T. cruzi (Dm28c-Luc) intracellular amastigotes', 'IC50', '97.7 µM'),
  ('Nc1c(C2=NCCS2)cnn1-c1ccc(Br)cc1', 'T. cruzi (Dm28c-Luc) intracellular amastigotes', 'IC50', '> 100 µM');

###

# assayMethodText: Cytotoxicity in vitro assay (CellTiter-Glo)
# Assay type: cell-based
# details: African green monkey, Vero cells, mean ± SD
measuredEndpoint: CC50 at 72 h

INSERT INTO measurements (molecule, measuredendpoint, measuredresult) VALUES
  ('Nc1c(C2=NCCS2)cnn1-c1cccc(F)c1', 'CC50 at 72 h', '> 500 µM'),
  ('Nc1c(C2=NCCS2)cnn1-c1cccc(Cl)c1', 'CC50 at 72 h', '> 500 µM'),
  ('Nc1c(C2=NCCS2)cnn1-c1ccc(Cl)cc1', 'CC50 at 72 h', '> 500 µM'),
  ('Nc1c(C2=NCCS2)cnn1-c1cccc(Cl)c1Cl', 'CC50 at 72 h', '> 500 µM'),
  ('Nc1c(C2=NCCS2)cnn1-c1ccc(Cl)cc1Cl', 'CC50 at 72 h', '> 50 µM'),
  ('Clc1ccc(-n2cc(C3=NCCS3)cn2)c(Cl)c1', 'CC50 at 72 h', '> 100 µM'),
  ('COc1ccc(-n2ncc(C3=NCCS3)c2N)cc1', 'CC50 at 72 h', '> 500 µM'),
  ('Nc1c(C2=NCCS2)cnn1-c1ccc(Br)cc1', 'CC50 at 72 h', '> 500 µM'),
  ('Clc1cc(Cl)cc(-n2cc(C3=NCCS3)cn2)c1', 'CC50 at 72 h', '> 500 µM'),
  ('O=C(Cn1ccnc1[N+](=O)[O-])NCc1ccccc1 [Bz, benznidazole, reference compound]', 'CC50 at 72 h', '> 500 µM');
